target: FPR2 (Homo sapiens (Human), UniProt P25090); assay: Agonistic activity (calcium FLIPR) in hFPR2-Aq-CHO cells; conditions: FLIPR Calcium 5 dye fluorescence, agonistic response
Sequence (P25090 whole entry): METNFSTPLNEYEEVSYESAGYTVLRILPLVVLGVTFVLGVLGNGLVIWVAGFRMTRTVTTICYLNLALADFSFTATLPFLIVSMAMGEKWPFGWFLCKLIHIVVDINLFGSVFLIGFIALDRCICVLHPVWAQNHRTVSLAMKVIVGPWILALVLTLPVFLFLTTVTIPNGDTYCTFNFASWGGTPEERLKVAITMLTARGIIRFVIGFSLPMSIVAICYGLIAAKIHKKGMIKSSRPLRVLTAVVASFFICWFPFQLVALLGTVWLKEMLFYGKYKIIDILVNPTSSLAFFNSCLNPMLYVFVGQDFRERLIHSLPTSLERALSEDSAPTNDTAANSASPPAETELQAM
measurement.kind: EC50

Q. Which EC50 value belongs to COc1ccc([C@@H]2CC(=O)NC[C@H]2NC(=O)Nc2ccc(Br)cc2)cc1 (racemic) [Example 3] ?
A. < 1 nM

Q. Which EC50 value belongs to COc1ccc([C@@H]2CCN(C(C)=O)C[C@H]2NC(=O)Nc2ccc(Cl)cc2)cc1 (racemic) [Example 2] ?
A. < 1 nM

Q. Which EC50 value belongs to COc1cc(F)c(C2CCN(C(=O)C3CC3)CC2NC(=O)Nc2ccc(Cl)cc2)c(F)c1 (single isomer, unassigned; ent1) [Example 39] ?
A. < 1 nM

Q. Which EC50 value belongs to COc1ccc([C@@H]2CC(=O)N(CCO)C[C@H]2NC(=O)Nc2ccc(Cl)cc2)cc1 (racemic) [Example 32] ?
A. < 1 nM

Q. Which EC50 value belongs to COc1cc(F)c([C@@H]2CC(=O)NC[C@H]2NC(=O)Nc2csc(Cl)c2)c(F)c1 (racemic) [Example 52] ?
A. < 1 nM

Q. Which EC50 value belongs to COc1ccc([C@@H]2CC(=O)N(CC3CC3)C[C@H]2NC(=O)Nc2ccc(Cl)cc2)cc1 (racemic) [Example 24] ?
A. < 1 nM

Q. Which EC50 value belongs to COc1ccc([C@@H]2CCNC[C@H]2NC(=O)Nc2ccc(Cl)cc2)cc1 (racemic) [Example 4] ?
A. < 1 nM

Q. Which EC50 value belongs to COc1cc(F)c([C@@H]2CCN(C(C)=O)C[C@H]2NC(=O)Nc2ccc(Cl)cc2)c(F)c1 (racemic) [Example 5] ?
A. < 1 nM

Q. Which EC50 value belongs to COCCN1CC(NC(=O)Nc2ccc(Cl)cc2)C(c2ccc(OC)cc2F)CC1=O (single isomer, unassigned; ent2) [Example 60] ?
A. 1 to 1000 nM

Q. Which EC50 value belongs to COc1ccc([C@@H]2CCN(C(C)=O)C[C@H]2NC(=O)Nc2ccc(Cl)nc2)cc1 (racemic) [Example 19] ?
A. 1 to 1000 nM

Q. Which EC50 value belongs to O=C1CC(c2ccc(F)cc2F)C(NC(=O)Nc2ccc(Cl)cc2)CN1 (single isomer, unassigned; ent1) [Example 67] ?
A. 1 to 1000 nM

Q. Which EC50 value belongs to O=C(Nc1ccc(Cl)cc1)NC1CN(CC(F)F)C(=O)CC1c1ccc(F)cc1F (single isomer, unassigned; ent2) [Example 66] ?
A. 1 to 1000 nM

Q. Which EC50 value belongs to COc1cc(F)c([C@@H]2CC(=O)N(CCO)C[C@H]2NC(=O)Nc2ccc(Cl)cc2)c(F)c1 (racemic) [Example 31] ?
A. < 1 nM

Q. Which EC50 value belongs to CS(=O)(=O)c1ccc([C@@H]2CC(=O)NC[C@H]2NC(=O)Nc2ccc(Cl)cc2)cc1 (racemic) [Example 75] ?
A. 1 to 1000 nM
